Test: plasma half-life in the rat
Assay type: in vivo
Settings: chez le rat, read-out: demi-vie plasmatique

molecule	half-life
CCN(CC)CCNC(=O)c1cc(Cl)c(N)cc1OC [Metoclopramide]	1 to 1.5 h
